# system-name: DLK (Homo sapiens)
# Construct: 10 nM DLK, catalytic domain, Carna Biosiences; purchased Carna Biosciences ('Carna Biosiences' [sic])
# Sequence (Q12852 125-366 limits assumed): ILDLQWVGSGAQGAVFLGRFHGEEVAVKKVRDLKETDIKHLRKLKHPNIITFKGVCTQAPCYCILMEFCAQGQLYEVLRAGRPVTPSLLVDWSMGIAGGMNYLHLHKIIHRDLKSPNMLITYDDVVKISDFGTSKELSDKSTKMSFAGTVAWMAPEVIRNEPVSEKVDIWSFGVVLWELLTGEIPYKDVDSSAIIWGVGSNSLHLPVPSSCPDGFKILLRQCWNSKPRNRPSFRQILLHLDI
# method: DLK biochemical assay (TR-FRET, MKK7 phosphorylation)
# experimental-parameters: DLK catalytic domain, MKK7 substrate, 60 μM ATP
A collection of compounds and their measured IC50
Reply with just the number (in nM).

# example entries with known answers
CC[C@H](C)NC(=O)c1cc(-c2cnn(C(c3ccccc3)C(C)C)c2)cc2nc(N)nn12 (single isomer, unassigned) [Example I-25]; 23
CC[C@H](C)NC(=O)c1cc(-c2cnn(C(c3ccccc3)C3CC(F)(F)C3)c2)cn2nc(N)nc12 (single isomer, unassigned) [Example I-33]; 2.2
CC[C@H](C)NC(=O)c1cc(-c2cnn(C3CCCC3)c2)cc2nc(N)nn12 (single isomer, unassigned) [Example I-12]; 120
CC[C@H](C)NC(=O)c1cc(-c2cnn(C(c3ccc(C(F)(F)F)nc3)C3CCOCC3)c2)cn2nc(N)nc12 (mixture of isomers) [Example I-76]; 0.5
CC[C@@H](c1ccc(F)cc1)n1cc(-c2cc(C(=O)NC(C)CF)n3nc(N)nc3c2)cn1 (single isomer, unassigned) [Example I-150]; 6.5
Nc1nc2cc(-c3cnn(C(c4ccc(C(F)(F)F)nc4)C4CCOCC4)c3)cc(C(=O)N[C@H]3CCOC3)n2n1 (single isomer, unassigned) [Example I-184]; 13

Input line: Recorded IC50 of CC[C@H](C)NC(=O)c1cc(-c2cnn(C(c3ccc(C(F)(F)F)nc3)C(C)C)c2)cc2nc(N)nn12 (single isomer, unassigned) [Example I-105] , please.
Output line: 13

Input line: One more compound: CC[C@H](C)NC(=O)c1cc(-c2cnn([C@H](c3ccccc3)C(C)C)c2)cc2nc(N)nn12 (single isomer, unassigned) [Example I-26]
Output line: 1.1

Input line: Then CCC(c1ccc(C(F)(F)F)nc1)n1cc(-c2cc(C(=O)NC(C)(C)CO)c3nc(N)nn3c2)cn1 (single isomer, unassigned) [Example I-165] ?
Output line: 64

Input line: // query: CC[C@H](C)NC(=O)c1cc(-c2cnn(C(c3ccc(C(F)(F)F)nc3)C3CCOCC3)c2)cc2nc(N)nn12 (mixture of isomers) [Example I-110]
Output line: 1.6

Input line: For CC[C@H](C)NC(=O)c1cc(-c2cnn(C(c3ccc(C(F)F)nc3)C(C)C)c2)cn2nc(N)nc12 (single isomer, unassigned) [Example I-68] then?
Output line: 14

Input line: # repeat for CC[C@H](C)NC(=O)c1cc(-c2cnn(C(c3ccc(OCC(F)(F)F)nc3)C(C)C)c2)cc2nc(N)nn12 (mixture of isomers) [Example I-116]
Output line: 8.2
